These entries and their values trace back to PubChem BioAssay AID588487.

Target: Protein-arginine deiminase type-2 (Homo sapiens)
Experiment: PAD1-4 inhibition by competitive ABPP, late-stage follow-up, orthogonal assay for PAD4 inhibitor project, biochemical, fluorescence, gel-based ABPP, HTS hits (AID 588487)
Settings: recombinant PAD1-4, gel-based ABPP, RFA probe fluorescence; PAD2; at 10 µM; stronger effect = higher value
Given measured inhibition, output criterion met if it is greater than or equal to 40% and criterion not met if not.

Molecule	System Under Test	Label Value
CC(=O)Nc1c2c3c(cccc3n(C)c1=O)C(=O)c1ccccc1-2	Protein-arginine deiminase type-2 (Homo sapiens)	criterion not met
CC(NC(=O)Nc1ccc(O)cc1)(C(F)(F)F)C(F)(F)F	Protein-arginine deiminase type-2 (Homo sapiens)	criterion not met
Cc1c(NC(=O)CSc2nccn2C)c(=O)n(-c2ccccc2)n1C	Protein-arginine deiminase type-2 (Homo sapiens)	criterion not met
Cc1ccc(C2=NN=C(NC(=O)CSc3nncn3C)SC2)cc1	Protein-arginine deiminase type-2 (Homo sapiens)	criterion not met
O=c1cc(-c2ccc(Cl)cc2)[nH][nH]1	Protein-arginine deiminase type-2 (Homo sapiens)	criterion met
O=C(NCC1CCCO1)c1cc2c([nH]c3ccccc32)c(-c2ccc(F)cc2)n1 (centres undefined)	Protein-arginine deiminase type-2 (Homo sapiens)	criterion not met
O=C(O)c1ccc(S(=O)(=O)c2ccc3c(c2)C(=O)N(c2ccc(O)cc2)C3=O)cc1	Protein-arginine deiminase type-2 (Homo sapiens)	criterion not met
CS(=O)(=O)c1ccc(N)c(SSc2cc(S(C)(=O)=O)ccc2N)c1	Protein-arginine deiminase type-2 (Homo sapiens)	criterion not met
Cc1nonc1OC(C)CNc1ccc([N+](=O)[O-])cc1 (centres undefined)	Protein-arginine deiminase type-2 (Homo sapiens)	criterion not met
O=[N+]([O-])c1ccc2nc(-c3ccccc3)n(OCc3ccc(Cl)cc3)c2c1	Protein-arginine deiminase type-2 (Homo sapiens)	criterion not met
COc1cccc(NC(=O)C2c3cc(OC)c(OC)cc3C(=O)N(C)C2c2cccnc2)c1 (centres undefined)	Protein-arginine deiminase type-2 (Homo sapiens)	criterion not met
COc1ccc(OC)c(C2C(C#N)=C(N)Oc3c2c(C)nn3-c2ccc(C)cc2)c1 (centres undefined)	Protein-arginine deiminase type-2 (Homo sapiens)	criterion not met
O=c1cc(-c2ccc(Cl)c(Cl)c2)[nH][nH]1	Protein-arginine deiminase type-2 (Homo sapiens)	criterion met
O=C(O)c1[nH]c2ccccc2c1-c1ccccc1	Protein-arginine deiminase type-2 (Homo sapiens)	criterion not met
c1ccc(CCn2c3ccccc3c3nnc(SCc4ccc5nonc5c4)nc32)cc1	Protein-arginine deiminase type-2 (Homo sapiens)	criterion not met
COc1cc(NC2c3ccccc3C(=O)N2Cc2ccccc2Cl)cc(OC)c1 (centres undefined)	Protein-arginine deiminase type-2 (Homo sapiens)	criterion not met
COc1cccc(C2=CC(c3ccc(OC)c(OC)c3)NC(=S)N2)c1 (centres undefined)	Protein-arginine deiminase type-2 (Homo sapiens)	criterion not met
O=C1CC(c2cccnc2)=NN1c1ccccc1	Protein-arginine deiminase type-2 (Homo sapiens)	criterion not met
Cc1ccc(C2CC(=O)Oc3cc(O)ccc32)cc1 (centres undefined)	Protein-arginine deiminase type-2 (Homo sapiens)	criterion not met
COc1ccc(-c2nc(C(=O)NCCCN3CCOCC3)cc3c2[nH]c2ccccc23)cc1OC	Protein-arginine deiminase type-2 (Homo sapiens)	criterion not met
COc1ccc(C2=CC(c3ccc(OC)c(OC)c3)NC(=S)N2)cc1 (centres undefined)	Protein-arginine deiminase type-2 (Homo sapiens)	criterion not met
CCN(CC)c1cccc(OC2=NS(=O)(=O)c3ccccc32)c1	Protein-arginine deiminase type-2 (Homo sapiens)	criterion met
Cc1cc2ncn(-c3ncccc3[N+](=O)[O-])c2cc1C	Protein-arginine deiminase type-2 (Homo sapiens)	criterion not met
CC(=O)N(Cc1cc(=O)[nH]c2ccccc12)c1cccc(C)c1	Protein-arginine deiminase type-2 (Homo sapiens)	criterion not met
O=c1cc(-c2ccc(F)cc2)[nH][nH]1	Protein-arginine deiminase type-2 (Homo sapiens)	criterion not met
N#CCCN(C(=O)Cn1nc(C(=O)O)c2ccccc2c1=O)c1ccccc1	Protein-arginine deiminase type-2 (Homo sapiens)	criterion not met
COc1ccc(C2C(C#N)=C(N)N(N(C)C)C3=C2C(=O)CCC3)cc1 (centres undefined)	Protein-arginine deiminase type-2 (Homo sapiens)	criterion not met
Cc1oc2c(C)c(O)ccc2c(=O)c1-c1ccc2ccccc2n1	Protein-arginine deiminase type-2 (Homo sapiens)	criterion met
O=c1cc(-c2cccc([N+](=O)[O-])c2)[nH][nH]1	Protein-arginine deiminase type-2 (Homo sapiens)	criterion not met
O=c1cc(-c2ccc(Br)cc2)[nH][nH]1	Protein-arginine deiminase type-2 (Homo sapiens)	criterion not met
Cc1cc(N(C)NC(=S)Nc2ccccc2)nc(C)n1	Protein-arginine deiminase type-2 (Homo sapiens)	criterion met
COc1ccc(-c2cc(=O)[nH][nH]2)cc1	Protein-arginine deiminase type-2 (Homo sapiens)	criterion met
CN(C)CCN(Cc1ccccc1)c1ccccn1	Protein-arginine deiminase type-2 (Homo sapiens)	criterion met
COc1ccc(-c2noc3c2-c2nc(-c4ccc(Br)cc4)sc2CC3)cc1	Protein-arginine deiminase type-2 (Homo sapiens)	criterion not met
COCc1cc(C)nc(SCC(=O)Nc2ccc3c(c2)n(C)c(=O)n3C)c1C#N	Protein-arginine deiminase type-2 (Homo sapiens)	criterion not met
O=C(CN1CCCCCC1)Nc1ccc(Br)cc1Br	Protein-arginine deiminase type-2 (Homo sapiens)	criterion not met
CC(=O)C1=C(c2ccccc2)N(C(C)=O)n2c(C)nnc2S1	Protein-arginine deiminase type-2 (Homo sapiens)	criterion not met
